The values you see were collected from paper PMC6862080.

Test system: E. coli (ATCC 11303)
EXPERIMENTAL_DETAILS: microbe, parasite or virus in culture
Format: cell-based
EXPERIMENTAL_CONDITIONS: ATCC 11303, pH 7.4
Peptide text beside a SMILES is read from it. * marks the point of attachment. Myristoyl = CCCCCCCCCCCCCC(=O)*
ENDPOINT_NAME: Minimal Inhibitory Concentration, E. coli, PBS

INSERT INTO results (molecule, observed_result) VALUES
  ('CCCCCCCCCCCCCC(=O)N[C@@H](Cc1ccccc1)C(=O)N[C@@H](Cc1c[nH]c2ccccc12)C(=O)N[C@@H](CCCNC(=N)N)C(=O)N[C@@H](CCCNC(=N)N)C(=O)N[C@@H](Cc1ccccc1)C(=O)N[C@@H](Cc1c[nH]c2ccccc12)C(=O)N[C@@H](CCCNC(=N)N)C(=O)N[C@@H](CCCNC(=N)N)C(N)=O [LF11-227-C14] (Myristoyl-FWRRFWRR-NH2)', '> 128 µg/mL');
